molecular target: BTK (Homo sapiens); construct: endogenous in cells; host or cells: Ramos (ATCC CRL-1596); assay: Cellular BTK HTRF Assay (BTK levels in Ramos cells); type: cell-based; conditions: Ramos cells, 50,000 cells, incubated four hours at 37° C.; BTK levels by Cisbio Total-BTK HTRF relative to DMSO-treated cells
Sequence (Q06187 whole entry): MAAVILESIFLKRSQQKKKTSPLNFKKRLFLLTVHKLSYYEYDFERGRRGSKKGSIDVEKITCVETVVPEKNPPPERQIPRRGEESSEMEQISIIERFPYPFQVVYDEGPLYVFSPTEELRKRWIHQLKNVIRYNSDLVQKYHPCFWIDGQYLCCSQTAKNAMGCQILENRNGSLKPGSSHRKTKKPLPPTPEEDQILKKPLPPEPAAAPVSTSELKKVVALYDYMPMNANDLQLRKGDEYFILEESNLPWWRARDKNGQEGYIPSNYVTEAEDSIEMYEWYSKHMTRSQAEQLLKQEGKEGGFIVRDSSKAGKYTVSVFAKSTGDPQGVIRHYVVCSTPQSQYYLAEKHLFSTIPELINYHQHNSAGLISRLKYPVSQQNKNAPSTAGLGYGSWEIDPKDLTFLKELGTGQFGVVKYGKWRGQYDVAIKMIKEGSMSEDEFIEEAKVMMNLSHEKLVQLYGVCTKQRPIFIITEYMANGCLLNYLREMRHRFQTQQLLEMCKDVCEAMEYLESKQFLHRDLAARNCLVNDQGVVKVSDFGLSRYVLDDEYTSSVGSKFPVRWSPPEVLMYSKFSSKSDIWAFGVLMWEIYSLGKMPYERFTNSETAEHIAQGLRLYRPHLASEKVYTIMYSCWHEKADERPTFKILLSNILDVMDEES
DC50 for assorted molecules
PROPERTY_NAME: DC50

• C[C@H]1CN(C(=O)CCOCCOCCOCCOCCOCCCc2cccc3c2CN(C2CCC(=O)NC2=O)C3=O)CCN1c1ccc(Nc2cc(-c3ccnc(N4CCn5c(cc6c5CC(C)(C)C6)C4=O)c3CO)cn(C)c2=O)nc1 (some centres unmarked) = < 1 nM
• Cn1cc(-c2ccnc(-n3ncc4cc(C(C)(C)C)cc(F)c4c3=O)c2CO)cc(Nc2cc3n(n2)CCN(C(=O)CN2CCN(CCCc4cccc5c4C(=O)N(C4CCC(=O)NC4=O)C5=O)CC2)C3)c1=O (centres unmarked) = 1 to 10 nM
• CN[C@@H](C)C(=O)N[C@H](C(=O)N1CCC[C@H]1c1nc(C(=O)c2cccc(OCCOCCOCCOCCC(=O)N3CCn4nc(Nc5cc(-c6ccnc(-n7ncc8cc(C(C)(C)C)cc(F)c8c7=O)c6CO)cn(C)c5=O)cc4C3)c2)cs1)C1CCCCC1 (stereo in doubt) = 10 to 1000 nM
• C[C@H]1CN(CCOCCOCCOCCOCCOCCNc2cccc3c2C(=O)N(C2CCC(=O)NC2=O)C3=O)CCN1c1ccc(Nc2cc(-c3ccnc(N4CCn5c(cc6c5CC(C)(C)C6)C4=O)c3CO)cn(C)c2=O)nc1 (some centres unmarked) = 1 to 10 nM
• C[C@H]1CN(C(=O)CN2CCN(CCCc3cccc4c3CN(C3CCC(=O)NC3=O)C4=O)CC2)CCN1c1ccc(Nc2cc(-c3ccnc(N4CCn5c(cc6c5CC(C)(C)C6)C4=O)c3CO)cn(C)c2=O)nc1 (some centres unmarked) = 1 to 10 nM
